# protocolNotes: in vivo
# appliedConditions: female, cynomolgus monkey, po, 5 mg/kg
Catalogue of compounds with associated AUC(0-t)
measurementName: AUC(0-t) (ng·h/mL)

>>> df
                                   compound  measurementname  resultunit  measvalue
0  COc1c(N2C[C@@H]3CCCN[C@@H]3C2)c(F)cc2c(=O)c(C(=O)O)cn(C3CC3)c12 [MFLX, moxifloxacin, reference compound]         AUC(0-t)     ng·h/mL       6640
1  COc1c(N2C[C@@H](N)C3(CC3)C2)c(F)cc2c(=O)c(C(=O)O)cn([C@@H]3C[C@@H]3F)c12 [Comparative compound 1]         AUC(0-t)     ng·h/mL       5110
2  COc1c(N2CC(C)(N)C3(CC3)C2)c(F)cc2c(=O)c(C(=O)O)cn([C@@H]3C[C@@H]3F)c12 (stereo partly drawn) [Example 9]         AUC(0-t)     ng·h/mL      16900

* * *

Catalogue of compounds with associated melting point
measurementName: melting point

                                   compound  measurementname      measvalue
0  Cc1c(N2CC(F)[C@](C)(N)C2)c(F)cc2c(=O)c(C(=O)O)cn([C@@H]3C[C@@H]3F)c12 (single isomer, unassigned) [Example 27]    melting point  215 to 217 °C
1  COc1c(N2CC(CF)C(C)(N)C2)c(F)cc2c(=O)c(C(=O)O)cn([C@@H]3C[C@@H]3F)c12 (single isomer, unassigned) [Example 8]    melting point  186 to 189 °C
2  COc1c(N2CC(OC)C(C)(N)C2)c(F)cc2c(=O)c(C(=O)O)cn([C@@H]3C[C@@H]3F)c12 (stereo partly shown) [Example 18]    melting point  150 to 151 °C
3  COc1c(N2CC(OC)C(C)(N)C2)c(F)cc2c(=O)c(C(=O)O)cn([C@@H]3C[C@@H]3F)c12 (stereo partly shown) [Example 19]    melting point  162 to 163 °C

* * *

# assayedSystem: hERG K+ channel (Homo sapiens)
# Sequence (Q12809 whole entry): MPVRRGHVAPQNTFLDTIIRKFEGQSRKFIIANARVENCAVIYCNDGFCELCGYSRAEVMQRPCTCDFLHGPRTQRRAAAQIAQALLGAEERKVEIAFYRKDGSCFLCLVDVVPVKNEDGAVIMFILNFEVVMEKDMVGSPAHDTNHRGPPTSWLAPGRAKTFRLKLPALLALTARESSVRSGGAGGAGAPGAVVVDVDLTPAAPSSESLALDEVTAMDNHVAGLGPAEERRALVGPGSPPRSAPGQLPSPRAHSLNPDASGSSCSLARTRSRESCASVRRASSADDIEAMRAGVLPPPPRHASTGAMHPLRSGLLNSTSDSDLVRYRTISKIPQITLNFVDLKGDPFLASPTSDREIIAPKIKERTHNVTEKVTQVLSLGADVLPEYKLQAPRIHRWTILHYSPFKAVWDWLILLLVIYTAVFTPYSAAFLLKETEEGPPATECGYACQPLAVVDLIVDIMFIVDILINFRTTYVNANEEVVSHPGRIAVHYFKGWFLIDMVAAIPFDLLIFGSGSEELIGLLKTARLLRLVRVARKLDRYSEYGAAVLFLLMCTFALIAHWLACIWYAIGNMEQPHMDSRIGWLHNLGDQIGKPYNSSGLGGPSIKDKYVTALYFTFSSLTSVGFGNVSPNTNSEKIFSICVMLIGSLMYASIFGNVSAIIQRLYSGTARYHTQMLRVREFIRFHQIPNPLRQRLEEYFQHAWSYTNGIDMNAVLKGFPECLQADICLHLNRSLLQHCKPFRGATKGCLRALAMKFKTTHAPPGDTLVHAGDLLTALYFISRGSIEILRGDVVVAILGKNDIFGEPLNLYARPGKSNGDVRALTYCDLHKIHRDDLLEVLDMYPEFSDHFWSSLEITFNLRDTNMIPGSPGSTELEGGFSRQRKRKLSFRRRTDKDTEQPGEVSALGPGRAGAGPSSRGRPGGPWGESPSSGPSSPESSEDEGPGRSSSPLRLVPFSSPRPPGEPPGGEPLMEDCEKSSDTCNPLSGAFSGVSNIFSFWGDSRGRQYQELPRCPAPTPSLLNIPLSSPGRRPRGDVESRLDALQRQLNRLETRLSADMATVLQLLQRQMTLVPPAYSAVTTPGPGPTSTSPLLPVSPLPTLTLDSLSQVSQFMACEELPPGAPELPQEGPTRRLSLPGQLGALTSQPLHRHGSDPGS
# protocolNotes: hERG-K^+ channel blocking effect
measurementName: inhibition at 300 µM (%)

                                    compound  measvalue
 0  COc1c(N2CC(C)(N)C3(CC3)C2)c(F)cc2c(=O)c(C(=O)O)cn([C@@H]3C[C@@H]3F)c12 (some centres unmarked)       20.1
 1  COc1c(N2C[C@@H]3CCCN[C@@H]3C2)c(F)cc2c(=O)c(C(=O)O)cn(C3CC3)c12 [MFLX, moxifloxacin, reference compound]       69.9
 2  COc1c(N2CC(F)[C@](C)(N)C2)c(F)cc2c(=O)c(C(=O)O)cn([C@@H]3C[C@@H]3F)c12 (single isomer, unassigned)       17.1
 3  Cc1c(N2C[C@H](CF)[C@](C)(N)C2)c(F)cc2c(=O)c(C(=O)O)cn(C3CC3)c12       16.7
 4  COc1c(N2CC(CF)C(C)(N)C2)c(F)cc2c(=O)c(C(=O)O)cn([C@@H]3C[C@@H]3F)c12 (single isomer, unassigned)        2.3
 5  Cc1c(N2C[C@H](CF)[C@](C)(N)C2)c(F)cc2c(=O)c(C(=O)O)cn([C@@H]3C[C@@H]3F)c12       21.5
 6  COc1c(N2C[C@@H](N)C3(CC3)C2)c(F)cc2c(=O)c(C(=O)O)cn([C@@H]3C[C@@H]3F)c12       24.8
 7  Cc1c(N2CC(F)[C@](C)(N)C2)c(F)cc2c(=O)c(C(=O)O)cn([C@@H]3C[C@@H]3F)c12 (single isomer, unassigned)        8.9
 8  COc1c(N2C[C@H](CF)[C@](C)(N)C2)c(F)cc2c(=O)c(C(=O)O)cn([C@@H]3C[C@@H]3F)c12       14.5
 9  COc1c(N2C[C@H](C)[C@@](C)(N)C2)c(F)cc2c(=O)c(C(=O)O)cn([C@@H]3C[C@@H]3F)c12 (single isomer, unassigned)       18.2
10  COc1c(N2CCNC(C)C2)c(F)cc2c(=O)c(C(=O)O)cn(C3CC3)c12 (centres unmarked) [GTFX, gatifloxacin, reference compound]         39

Where these numbers come from: patent US7563805B2
